Here, each record is paired with measured pEC50 data.
- MEASUREMENT_TARGET: hSTING (Homo sapiens, UniProt Q86WV6)
- Sequence (Q86WV6 whole entry R71H/G230A/H232R/R293Q, form open): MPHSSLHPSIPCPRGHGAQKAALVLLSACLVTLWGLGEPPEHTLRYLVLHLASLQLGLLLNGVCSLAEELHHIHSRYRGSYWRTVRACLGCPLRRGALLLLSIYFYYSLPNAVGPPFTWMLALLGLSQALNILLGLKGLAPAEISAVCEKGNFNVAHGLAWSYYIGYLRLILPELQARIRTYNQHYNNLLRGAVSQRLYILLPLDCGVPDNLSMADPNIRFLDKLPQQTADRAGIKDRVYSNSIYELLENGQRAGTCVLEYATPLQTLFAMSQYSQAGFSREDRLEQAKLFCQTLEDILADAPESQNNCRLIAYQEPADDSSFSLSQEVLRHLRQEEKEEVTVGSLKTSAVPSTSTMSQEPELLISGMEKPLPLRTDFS
- PROTOCOL_TEXT: STING reporter assay in THP1-Dual KO-IFNAR2 cells (2′3′cGAMP stimulation, luciferase reporter)
- CONDITIONS_USED: 15 μM 2′3′cGAMP, 24 h, luciferase reporter activity
pEC50: −log10 of the molar value.
MEASURED_PROPERTY: pEC50

[[record]]
smiles_repr = "CCc1ccc(-n2cc(-c3ccc4[nH]cc(NC(=O)NCCOC)c4c3)cn2)cc1"
measurement = "6.00 to 6.70"

[[record]]
smiles_repr = "CCc1ccc(-n2cc(-c3ccc4[nH]cc(NC(=O)NC)c4c3)cn2)cc1"
measurement = "6.00 to 6.70"

[[record]]
smiles_repr = "O=C(NCC(F)(F)F)Nc1c[nH]c2ccc(-c3cnn(-c4ccc(C(F)(F)F)cc4)c3)cc12"
measurement = "6.00 to 6.70"

[[record]]
smiles_repr = "CCc1ccc(-n2cc(-c3ccc4[nH]cc(NC(=O)NC5CCCC5)c4c3)cn2)cc1"
measurement = "6.00 to 6.70"

[[record]]
smiles_repr = "CNC(=O)Nc1c[nH]c2ccc(-c3cnn(-c4cccc(C#N)c4)c3)cc12"
measurement = "4.00 to 5.30"

[[record]]
smiles_repr = "CCc1ccc(-n2cc(-c3ccc4[nH]cc(NC(=O)NCC(F)(F)F)c4c3)cn2)cc1"
measurement = "6.70 to 7.40"

[[record]]
smiles_repr = "CCc1ccc(-n2cc(-c3ccc4[nH]cc(NC(=O)NCC(F)F)c4c3)cn2)cc1"
measurement = "6.00 to 6.70"

[[record]]
smiles_repr = "CCc1ccc(-n2cc(-c3ccc4[nH]cc(NC(=O)NCC5CCCC5)c4c3)cn2)cc1"
measurement = "6.00 to 6.70"

[[record]]
smiles_repr = "CNC(=O)Nc1c[nH]c2ccc(-c3cnn(C4CCCC4)c3)cc12"
measurement = "4.00 to 5.30"

[[record]]
smiles_repr = "CNC(=O)Nc1c[nH]c2ccc(-c3cnn(-c4ccccc4)c3)cc12"
measurement = "5.30 to 6.00"

[[record]]
smiles_repr = "CCc1ccc(-n2cc(-c3ccc4[nH]cc(NC(=O)NCC5CC5)c4c3)cn2)cc1"
measurement = "6.00 to 6.70"

[[record]]
smiles_repr = "O=C(NCC(F)(F)F)Nc1c[nH]c2ccc(-c3cnn(-c4ccc(C(F)(F)F)cn4)c3)cc12"
measurement = "6.00 to 6.70"

[[record]]
smiles_repr = "CCc1ccc(-n2cc(-c3ccc4[nH]cc(NC(=O)N5CCN(C(C)=O)CC5)c4c3)cn2)cc1"
measurement = "5.30 to 6.00"

[[record]]
smiles_repr = "CCc1ccc(-n2cc(-c3ccc4[nH]cc(NC(=O)N[C@H]5C[C@H](OC)C5)c4c3)cn2)cc1"
measurement = "6.00 to 6.70"

[[record]]
smiles_repr = "CNC(=O)Nc1c[nH]c2ccc(-c3ccnc(N4CCCCC4)c3)cc12"
measurement = "4.00 to 5.30"

[[record]]
smiles_repr = "CCc1ccc(-n2cc(-c3ccc4[nH]cc(NC(=O)N5CCCC5)c4c3)cn2)cc1"
measurement = "6.00 to 6.70"


* * *

- MEASUREMENT_TARGET: UniProt Q86WV6
- PROTOCOL_TEXT: STING reporter assay in THP1-Dual KO-IFNAR2 cells (2′3′cGAMP stimulation, luciferase reporter)
- CONDITIONS_USED: 15 μM 2′3′cGAMP, 24 h, luciferase reporter activity
MEASURED_PROPERTY: EC50

[[record]]
compound = "CNC(=O)Nc1c[nH]c2ccc(-c3cccc(C4CC4)c3)cc12"
measurement_target = "UniProt Q86WV6"
measured_property = "EC50"
measurement = "1 to 5 µM"

[[record]]
compound = "CNC(=O)Nc1c[nH]c2ccc(-c3cnn(-c4ccccc4Cl)c3)cc12"
measurement_target = "UniProt Q86WV6"
measured_property = "EC50"
measurement = "1 to 5 µM"

[[record]]
compound = "CC(C)(O)CNC(=O)Nc1c[nH]c2ccc(-c3cnn(-c4ccc(C(F)(F)F)cc4)c3)cc12"
measurement_target = "UniProt Q86WV6"
measured_property = "EC50"
measurement = "0.2 to 1 µM"

[[record]]
compound = "O=C(NCC1CC1)Nc1c[nH]c2ccc(-c3cnn(Cc4ccc(C(F)(F)F)cc4)c3)cc12"
measurement_target = "UniProt Q86WV6"
measured_property = "EC50"
measurement = "0.2 to 1 µM"

[[record]]
compound = "O=C(NCC1CC1)Nc1c[nH]c2ccc(-c3cnn(-c4ccc(C(F)(F)F)cn4)c3)cc12"
measurement_target = "UniProt Q86WV6"
measured_property = "EC50"
measurement = "0.2 to 1 µM"

[[record]]
compound = "CNC(=O)Nc1c[nH]c2ccc(-c3cnn(-c4ccc(C(F)(F)F)cc4)c3)cc12"
measurement_target = "UniProt Q86WV6"
measured_property = "EC50"
measurement = "0.2 to 1 µM"

[[record]]
compound = "CNC(=O)Nc1c[nH]c2ccc(-c3cnn(-c4cccc(Cl)c4)c3)cc12"
measurement_target = "UniProt Q86WV6"
measured_property = "EC50"
measurement = "0.2 to 1 µM"

[[record]]
compound = "CCc1ccc(-n2cc(-c3ccc4[nH]cc(NC(=O)NC5CCOC5)c4c3)cn2)cc1 (stereo not shown)"
measurement_target = "UniProt Q86WV6"
measured_property = "EC50"
measurement = "0.2 to 1 µM"

[[record]]
compound = "CNC(=O)Nc1c[nH]c2ccc(-c3cnn(Cc4ccc(C(F)(F)F)cc4)c3)cc12"
measurement_target = "UniProt Q86WV6"
measured_property = "EC50"
measurement = "0.2 to 1 µM"

[[record]]
compound = "CCc1ccc(-n2cc(-c3ccc4[nH]cc(NC(=O)NCCC(F)(F)F)c4c3)cn2)cc1"
measurement_target = "UniProt Q86WV6"
measured_property = "EC50"
measurement = "0.04 to 0.2 µM"

[[record]]
compound = "O=C(NCC1CC1)Nc1c[nH]c2ccc(-c3cnn(-c4ccc(C(F)(F)F)cc4)c3)cc12"
measurement_target = "UniProt Q86WV6"
measured_property = "EC50"
measurement = "0.2 to 1 µM"

[[record]]
compound = "CNC(=O)Nc1c[nH]c2ccc(-c3ccc(C4(C#N)CC4)cc3)cc12"
measurement_target = "UniProt Q86WV6"
measured_property = "EC50"
measurement = "5 to 100 µM"

[[record]]
compound = "CCc1ccc(-n2cc(-c3ccc4[nH]cc(NC(=O)N(C)C)c4c3)cn2)cc1"
measurement_target = "UniProt Q86WV6"
measured_property = "EC50"
measurement = "0.2 to 1 µM"

[[record]]
compound = "CCc1ccc(-n2cc(-c3ccc4[nH]cc(NC(=O)NC(C)C)c4c3)cn2)cc1"
measurement_target = "UniProt Q86WV6"
measured_property = "EC50"
measurement = "0.2 to 1 µM"

[[record]]
compound = "CCc1ccc(-n2cc(-c3ccc4[nH]cc(NC(=O)NC5CCC5)c4c3)cn2)cc1"
measurement_target = "UniProt Q86WV6"
measured_property = "EC50"
measurement = "0.2 to 1 µM"

[[record]]
compound = "CC(=O)N1CCC(NC(=O)Nc2c[nH]c3ccc(-c4cnn(-c5ccc(C(F)(F)F)cc5)c4)cc23)C1 (stereo not shown)"
measurement_target = "UniProt Q86WV6"
measured_property = "EC50"
measurement = "1 to 5 µM"


// data source = patent US12152018B2
